Experiment: NCI Yeast Anticancer Drug Screen. Data for the mec2-1 strain (AID 157)
Particulars: S. cerevisiae mec2-1 strain, at 50.0 µM, active compounds read high
About 79,000 compounds went through this panel and 15% of them were active in at least one assay; those are over-represented in the sample as a whole.
Quantity: growth inhibition (%)

INSERT INTO assay_data (molecule, quantity, experimental_result) VALUES
  ('Clc1ccc(Cl)s1', 'growth inhibition', 3.55),
  ('CCOC(=O)c1ccc(NC(=O)Oc2cc(C)c(Cl)c(C)c2)cc1', 'growth inhibition', -3.4),
  ('C[N+](C)(CCS(=O)(=O)[O-])C1CCCCC1', 'growth inhibition', -8.7),
  ('O=C1NC(=O)C(=Nc2cccc3c(=O)[nH][nH]c(=O)c23)C(c2nc3ccccc3s2)C1=O (configuration not stated)', 'growth inhibition', -9.7),
  ('Nc1nc2c(ncn2C2OC(CO)C3OP(=O)(O)OC32)c(=O)[nH]1 (configuration not stated)', 'growth inhibition', -5.1),
  ('COc1cc2[nH]c(-c3ccccc3)cc(=O)c2c(OC)c1OC', 'growth inhibition', -3.65),
  ('COc1ccc(/C=N/NC(=O)NCCCN(C)C)cc1', 'growth inhibition', -29),
  ('NC(=O)C(=CNc1nc(-c2ccc(Cl)c(Cl)c2)cs1)C(N)=O', 'growth inhibition', -45.1),
  ('OC1CCCC2OC2CC1 (configuration not stated)', 'growth inhibition', 6.55),
  ('O=C(c1ccc([N+](=O)[O-])cc1)c1cc2ccccc2oc1=O', 'growth inhibition', -8.5),
  ('COc1ccc(-c2cc(-c3ccc(OC)cc3)cc(-c3ccc(OC)cc3)c2)cc1', 'growth inhibition', -22.8),
  ('CCCOCN1COCN=C1NC#N', 'growth inhibition', 12.3);

---

Experiment: NCI Yeast Anticancer Drug Screen. Data for the bub3 strain (AID 167)
Particulars: S. cerevisiae bub3 mutant strain, at 50.0 µM
About 79,000 compounds went through this panel and 15% of them were active in at least one assay; those are over-represented in the sample as a whole. Activity calls are given as the source filed them. No stated cut-off is given here; in the data, active means growth inhibition above about 70%; inactive means the rest.
Labels: active, inactive

INSERT INTO results (compound, category) VALUES
  ('CC(C)(C)C(=O)C1C(=O)c2ccccc2C1=O', 'inactive'),
  ('Fc1cccc(CSc2cnnc(SCc3cccc(F)c3)c2SCc2cccc(F)c2)c1', 'inactive'),
  ('O=C(/C=C/CC(O)(c1ccccc1)c1ccccc1)Nc1ccccc1Cl', 'inactive'),
  ('Nc1ccccc1C(=O)Nc1ccc(Cl)cc1C(=O)O', 'inactive'),
  ('CC/C(=C\c1ccc(OC)cc1)c1ccc(OC)cc1', 'inactive'),
  ('COc1nc(N)c(NC(C)=O)c(=O)n1C', 'inactive'),
  ('O=C(O)CCc1c(-c2ccccc2)c(-c2ccccc2)c2n1CCC2', 'inactive'),
  ('Nc1nc(Br)nc2ncn(C3CC(O)C(CO)O3)c12 (configuration not stated)', 'inactive'),
  ('CCCCN(CCCC)C(=Nc1ccccc1)N(CCCC)CCCC', 'inactive'),
  ('CCCCCCCC(=O)OCC1OC(n2cc(F)c(=O)[nH]c2=O)C(NC(=O)OCc2ccccc2)C(OC(=O)CCCCCCC)C1O (configuration not stated)', 'inactive'),
  ('CC(C)NCC1CCCO1 (configuration not stated)', 'inactive'),
  ('Cc1cccc(NC(=O)Oc2cc(C)c(Cl)cc2C(C)C)c1', 'active');
